Reported log10 IC50 values are given for each entry in this list.
- TARGET OR TEST SYSTEM: Mu-type opioid receptor (Cavia porcellus, UniProt P97266)
- Sequence (P97266 whole entry): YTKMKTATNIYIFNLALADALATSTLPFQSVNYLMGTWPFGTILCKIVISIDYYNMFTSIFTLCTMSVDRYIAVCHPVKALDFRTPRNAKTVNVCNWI
- TEST NAME: Agonist activity at mu opioid receptor by inhibition of muscle contraction in electrically stimulated isolated guinea pig ileum
# log10 transformed; quantity=IC50; unit=nM

- COMPOUND: "CCCC[C@@H](C(=O)N[C@@H](CC(=O)O)C(=O)N[C@@H](Cc1ccccc1)C(N)=O)N(C)C(=O)[C@H](Cc1c[nH]c2ccccc12)NC(=O)CNC(=O)[C@@H](Cc1ccccc1)NC(=O)[C@H](Cc1ccc(O)cc1)NC(=O)[C@@H](N)CC(=O)O"
  log10 IC50: 2.34
- COMPOUND: "CCCC[C@H](NC(=O)[C@H](N)Cc1c[nH]c2ccccc12)C(=O)N[C@@H](CC(=O)O)C(=O)N[C@@H](Cc1ccccc1)C(=O)NNC(=O)[C@H](Cc1ccccc1)NC(=O)CNC(=O)[C@@H](C)NC(=O)[C@@H](N)Cc1ccc(O)cc1"
  log10 IC50: 1.91
- COMPOUND: "CCCC[C@H](NC(=O)[C@H](Cc1c[nH]c2ccccc12)NC(C)=O)C(=O)N[C@@H](CC(=O)O)C(=O)N(C)[C@@H](Cc1ccccc1)C(=O)NNC(=O)[C@H](Cc1ccccc1)NC(=O)CNC(=O)[C@@H](C)NC(=O)[C@@H](N)Cc1ccc(O)cc1"
  log10 IC50: 1.79
- COMPOUND: "CC(=O)N[C@@H](Cc1c[nH]c2ccccc12)C(=O)N[C@@H](CCCCNC(=O)Nc1ccccc1Cl)C(=O)N[C@@H](CC(=O)O)C(=O)N(C)[C@@H](Cc1ccccc1)C(=O)NNC(=O)[C@H](Cc1ccccc1)NC(=O)CNC(=O)[C@@H](C)NC(=O)[C@@H](N)Cc1ccc(O)cc1"
  log10 IC50: 2.30
- COMPOUND: "CCCC[C@H](NC(=O)[C@@H](Cc1c[nH]c2ccccc12)NC(=O)OC(C)(C)C)C(=O)N[C@@H](CC(=O)O)C(=O)N[C@@H](Cc1ccccc1)C(=O)NNC(=O)[C@H](Cc1ccccc1)NC(=O)CNC(=O)[C@@H](C)NC(=O)[C@@H](N)Cc1ccc(O)cc1"
  log10 IC50: 2.66

The recorded log10 IC50 for CCCC[C@H](NC(=O)[C@@H](Cc1c[nH]c2ccccc12)NC(=O)OC1C2CC3CC(C2)CC1C3)C(=O)N[C@@H](CC(=O)O)C(=O)N[C@@H](Cc1ccccc1)C(=O)NNC(=O)[C@H](Cc1ccccc1)NC(=O)CNC(=O)[C@@H](C)NC(=O)[C@@H](N)Cc1ccc(O)cc1 (some centres not stated) is 3.08

The recorded log10 IC50 for CCCC[C@H](NC(=O)[C@H](Cc1c[nH]c2ccccc12)NC(C)=O)C(=O)N[C@@H](CC(=O)O)C(=O)N[C@@H](Cc1ccccc1)C(=O)NNC(=O)[C@H](Cc1ccccc1)NC(=O)CNC(=O)[C@@H](C)NC(=O)[C@@H](N)Cc1ccc(O)cc1 is 1.45
